Hi there, I'd appreciate the recorded Papp at 18 hours, 50 µM for every entry that follows.
Test: PAMPA (parallel artificial membrane permeability assay)
Type: in vitro ADME
Conditions: PAMPA; membrane permeation rate (Pe); 50 mM MOPSO buffer pH 6.5 with 5.0% glycocholic acid, 37° C., 18 hours; read-out: iPAMPA Pe
Starred links: 1 amine or outer side, 2 acyl side, 3 side chain; linkers in the order of their positions; H or OH if unused. Positions of bridges follow the written chain, without caps; N, C: chain ends. Non-standard residues stand in square brackets, D forms with d. Residues, ends and D or L forms follow the SMILES beside them. *: point of attachment. NMeF = CN[C@@H](Cc1ccccc1)C(=O)O; NMeI = CC[C@H](C)[C@H](NC)C(=O)O; NMeβAla = CN(CCC(=O)[*:2])[*:1]; NMeL = CN[C@@H](CC(C)C)C(=O)O; NMeV = CN[C@H](C(=O)O)C(C)C; NMeA = CN[C@@H](C)C(=O)O; Piperidide = C1CCN(*)CC1; dNMeA = CN[C@H](C)C(=O)O; Sar = CNCC(=O)O
// units = ×10⁻⁶ cm/s; emit number, no label

input: GET /values?readout=Papp at 18 hours, 50 µM&item= CC(C)C[C@H]1C(=O)N[C@@H](C(C)C)C(=O)N(C)[C@@H](C)C(=O)N(C)[C@@H](C)C(=O)N[C@@H]([C@@H](C)O)C(=O)N(C)[C@@H](C)C(=O)N[C@H](C(=O)N(C)[C@@H](Cc2ccccc2)C(=O)N(C)[C@@H](Cc2ccccc2)C(=O)N[C@@H](C)C(=O)N2CCCCC2)CC(=O)N(C)[C@H](C)C(=O)N(C)[C@@H](Cc2ccccc2)C(=O)N1C [DP-400] ([dNMeA][NMeF][NMeL]V[NMeA][NMeA]T[NMeA]D[NMeF][NMeF]A-Piperidide; lactam N-9)
output: 15

input: GET /values?readout=Papp at 18 hours, 50 µM&item= CC(C)C[C@H]1C(=O)N[C@@H]([C@@H](C)O)C(=O)N(C)[C@@H](C)C(=O)N(C)[C@@H](CC(C)C)C(=O)N[C@H](C(=O)N(C)[C@@H](Cc2ccccc2)C(=O)N[C@@H](C)C(=O)N2CCCCC2)CC(=O)N(C)CCC(=O)N(C)[C@@H](Cc2ccccc2)C(=O)N(C)[C@@H](C(C)C)C(=O)N[C@@H](C(C)C)C(=O)N1C [DP-358] ([NMeβAla][NMeF][NMeV]V[NMeL]T[NMeA][NMeL]D[NMeF]A-Piperidide; lactam N-9)
output: 32

input: GET /values?readout=Papp at 18 hours, 50 µM&item= CC(C)C[C@H]1C(=O)N(C)[C@@H](CC(C)C)C(=O)N[C@@H]([C@@H](C)O)C(=O)N(C)[C@@H](C)C(=O)N[C@H](C(=O)N(C)[C@@H](Cc2ccccc2)C(=O)N(C)[C@@H](Cc2ccccc2)C(=O)N[C@@H](C)C(=O)N2CCCCC2)CC(=O)N(C)CCC(=O)N(C)CC(=O)N(C)[C@@H](Cc2ccccc2)C(=O)N[C@@H](C)C(=O)N1C [DP-398] ([NMeβAla][Sar][NMeF]A[NMeL][NMeL]T[NMeA]D[NMeF][NMeF]A-Piperidide; lactam N-9)
output: 24

input: GET /values?readout=Papp at 18 hours, 50 µM&item= CC(C)C[C@H]1C(=O)NCC(=O)N[C@H](C(=O)N(C)[C@@H](Cc2ccccc2)C(=O)N[C@@H](C)C(=O)N2CCCCC2)CC(=O)N[C@H](C(C)C)C(=O)N[C@@H]([C@@H](C)O)C(=O)N(C)[C@@H](C)C(=O)N(C)[C@@H](Cc2ccccc2)C(=O)N[C@@H](C(C)C)C(=O)N(C)[C@@H](Cc2ccccc2)C(=O)N1C [DP-382] ([dV]T[NMeA][NMeF]V[NMeF][NMeL]GD[NMeF]A-Piperidide; lactam N-9)
output: 49

input: GET /values?readout=Papp at 18 hours, 50 µM&item= CC[C@H](C)[C@H]1C(=O)N(C)[C@@H](CC(C)C)C(=O)N[C@H](C(=O)N2CCCCC2)CC(=O)N(C)CC(=O)N[C@@H](CC(C)C)C(=O)N[C@@H]([C@@H](C)O)C(=O)N(C)CC(=O)N(C)[C@@H](Cc2ccccc2)C(=O)N[C@@H](C)C(=O)N(C)[C@@H](Cc2ccccc2)C(=O)N(C)[C@@H](CC(C)C)C(=O)N1C [DP-246] ([Sar]LT[Sar][NMeF]A[NMeF][NMeL][NMeI][NMeL]D-Piperidide; lactam N-11)
output: 41

---

Test: Metabolic stability in human hepatic microsome
Type: in vitro ADME
Details: microsomes, pH 7.4; human hepatic microsome, NADPH(+); read-out: CL NADPH(+)
Starred links: 1 amine or outer side, 2 acyl side, 3 side chain; linkers in the order of their positions; H or OH if unused. Positions of bridges follow the written chain, without caps; N, C: chain ends. Non-standard residues stand in square brackets, D forms with d. Residues, ends and D or L forms follow the SMILES beside them. *: point of attachment. Phe(4-(CH2)5CO) = O=C([C@H](Cc1ccc(CCCCCC(=O)[*:3])cc1)N[*:1])[*:2]; NMeF = CN[C@@H](Cc1ccccc1)C(=O)O; NMeI = CC[C@H](C)[C@H](NC)C(=O)O; NMeL = CN[C@@H](CC(C)C)C(=O)O; NMeA = CN[C@@H](C)C(=O)O; Piperidide = C1CCN(*)CC1; dNMeA = CN[C@H](C)C(=O)O; Sar = CNCC(=O)O
Experimental endpoint: microsomal CLint at 1 uM (µL/min/mg)
// units = µL/min/mg; emit number, no label

input: GET /values?readout=microsomal CLint at 1 uM&item= CC(C)C[C@@H]1NC(=O)[C@H](CC(C)C)N(C)C(=O)[C@H](CC(C)C)N(C)C(=O)[C@H](Cc2ccccc2)NC(=O)[C@H](Cc2ccccc2)N(C)C(=O)[C@H](CCC(N)=O)NC(=O)[C@H](CC(C)C)N(C)C(=O)[C@H](Cc2ccccc2)NC(=O)[C@H](C)NC(=O)C[C@@H](C(=O)N(C)[C@@H](Cc2ccccc2)C(=O)N[C@@H](C)C(=O)N2CCCCC2)NC1=O [DP-601] (AF[NMeL]Q[NMeF]F[NMeL][NMeL]LD[NMeF]A-Piperidide; lactam N-10)
output: 21

input: GET /values?readout=microsomal CLint at 1 uM&item= CC[C@H](C)[C@H]1C(=O)N(C)[C@@H](C)C(=O)N[C@H](C(=O)N2CCCCC2)Cc2ccc(cc2)CCCCCC(=O)N[C@@H]([C@@H](C)O)C(=O)N(C)[C@@H](Cc2ccccc2)C(=O)N(C)[C@@H](CC(C)C)C(=O)N[C@@H](C(C)C)C(=O)N2CCC[C@H]2C(=O)N(C)[C@@H](Cc2ccccc2)C(=O)N[C@@H](CC(C)C)C(=O)N(C)CC(=O)N1C [DP-883] (T[NMeF][NMeL]VP[NMeF]L[Sar][NMeI][NMeA][Phe(4-(CH2)5CO)]-Piperidide; lactam N-11)
output: 294

input: GET /values?readout=microsomal CLint at 1 uM&item= CC[C@H](C)[C@@H]1NC(=O)[C@H](CC(C)C)N(C)C(=O)CN(C)C(=O)[C@H]([C@@H](C)O)NC(=O)[C@@H](C)N(C)C(=O)C[C@@H](C(=O)N2CCCCC2)NC(=O)[C@H](CC(C)C)N(C)C(=O)[C@H](Cc2ccccc2)N(C)C(=O)[C@H](CC(C)C)N(C)C1=O [DP-512] ([dNMeA]T[Sar][NMeL]I[NMeL][NMeF][NMeL]D-Piperidide; lactam N-9)
output: 62

---

Test: PAMPA (parallel artificial membrane permeability assay)
Type: in vitro ADME
Details: PAMPA, pH 6.5
Starred links: 1 amine or outer side, 2 acyl side, 3 side chain; linkers in the order of their positions; H or OH if unused. Positions of bridges follow the written chain, without caps; N, C: chain ends. Non-standard residues stand in square brackets, D forms with d. Residues, ends and D or L forms follow the SMILES beside them. *: point of attachment. NMeF = CN[C@@H](Cc1ccccc1)C(=O)O; NMeI = CC[C@H](C)[C@H](NC)C(=O)O; NMeβAla = CN(CCC(=O)[*:2])[*:1]; NMeL = CN[C@@H](CC(C)C)C(=O)O; NMeA = CN[C@@H](C)C(=O)O; Piperidide = C1CCN(*)CC1; β3hA = C[C@H](N)CC(=O)O; tBu = CC(C)(C)*
Experimental endpoint: Papp at 18 hours, 50 µM (×10⁻⁶ cm/s)
// units = ×10⁻⁶ cm/s; emit number, no label

input: GET /values?readout=Papp at 18 hours, 50 µM&item= CC[C@H](C)[C@H]1C(=O)N[C@@H]([C@@H](C)O)C(=O)N[C@@H](Cc2ccccc2)C(=O)N2CCC[C@H]2C(=O)NCC(=O)N(C)[C@@H](CC(C)C)C(=O)N[C@H](C(=O)N(C)[C@@H](Cc2ccccc2)C(=O)N[C@@H](C)C(=O)N2CCCCC2)CC(=O)N[C@H](C(C)C)C(=O)N[C@@H](Cc2ccccc2)C(=O)N(C)[C@@H](CC(C)C)C(=O)N[C@@H](CC(C)C)C(=O)N1C [DP-278] ([dV]F[NMeL]L[NMeI]TFPG[NMeL]D[NMeF]A-Piperidide; lactam N-11)
output: 1.5

input: GET /values?readout=Papp at 18 hours, 50 µM&item= CC[C@H](C)[C@H]1C(=O)N[C@@H](C)C(=O)N(C)[C@@H](CC(C)C)C(=O)N[C@@H](COC(C)(C)C)C(=O)N(C)[C@@H](CC(C)C)C(=O)N[C@@H](C)CC(=O)N(C)CCC(=O)N[C@@H](Cc2ccccc2)C(=O)N(C)[C@@H](Cc2ccccc2)C(=O)N(C)[C@@H](CC(C)C)C(=O)N[C@@H]([C@@H](C)O)C(=O)N(C)[C@@H](C)C(=O)N1C [DP-756] (cyclo(A[NMeL]S(tBu)[NMeL][β3hA][NMeβAla]F[NMeF][NMeL]T[NMeA][NMeI]))
output: 30
